We begin with a simple list: items and their reported normalized growth.
- method.description: chemical genetic growth profiling, strain panel (AID 1159580);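 also: tested at 20 µM; growth read once vehicle control cultures reached saturation at 30 °C; 1 = growth at the plate median or of vehicle wells; lower values mean less growth of the strain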
- measurement.setup: S. cerevisiae deletion strains, growth OD, locus YPL209C, strain IPL1, hits give low values
About 2,000 (36%) of roughly 5,500 compounds were called active. Inconclusive results (about 18%) are left out. Some of the results follow.
experimental.readout: normalized growth

compound | endpoint.value
CCOC(=O)NC(=S)NC12CC3CC(CC(C3)C1)C2 | 0.981
CC(=O)C(Sc1nc2ccccc2s1)C(C)=O | 0.914
CCCCCCCC1CCC/C1=N/OC(=O)c1cccs1 (stereo unspecified) | 1
O=S(=O)(Nc1cc(C(F)(F)F)ccc1F)c1cc(C(F)(F)F)ccc1Cl | 0.935
CC(C)(O)C#Cc1ccc(/C=N\Nc2ccccc2)cc1 | 0.959
CC(C)(O)C#Cc1ccc(/C=N\Nc2c(Cl)cc(Cl)cc2Cl)cc1 | 0.979

* * *

- method.description: chemical genetic growth profiling, strain panel (AID 1159580);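 also: tested at 20 µM; growth read once vehicle control cultures reached saturation at 30 °C; 1 = growth at the plate median or of vehicle wells; lower values mean less growth of the strain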
- measurement.setup: S. cerevisiae deletion strains, growth OD, locus YMR129W, hits give low values
Among all 5,500 compounds or so, about 2,000 (36%) were called active. Another 18% or so got no clear call; they are omitted. The list shows a part of the results.
Readings of normalized growth for the listed compounds
experimental.readout: normalized growth

compound | experimental.readout | endpoint.value
NC(=O)c1cnccn1 | normalized growth | 0.993 (inactive)
Cc1cccc(CN2CCN(C(c3ccccc3)c3ccc(Cl)cc3)CC2)c1 (centres undefined) | normalized growth | 0.876 (active)
O=C1OCCN1/N=C\c1ccc([N+](=O)[O-])o1 | normalized growth | 1 (inactive)
CC[C@@H]1[C@@H](O)N2C3C[C@H]1C1C(O)[C@]4(C[C@@H]12)c1ccccc1N(C)[C@@H]34 (some centres undefined) | normalized growth | 1.01 (inactive)
O=C1CN(/N=C\c2ccc([N+](=O)[O-])o2)C(=O)N1 | normalized growth | 0.965 (inactive)
CC1=CC(=O)CC(C)(C)C1(O)/C=C/C(C)=C\C(=O)O (centres undefined) | normalized growth | 1.03 (inactive)
COc1ccc(C=CC(=O)c2ccc(O)cc2O)cc1OC | normalized growth | 0.98 (inactive)
CC[C@@H](C(=O)[C@@H](C)[C@@H](O)[C@H](C)[C@@H]1O[C@@H]([C@@H](CC)C(=O)O)CC[C@@H]1C)[C@H]1OC2(C=C[C@@H](O)[C@]3(CC[C@@](C)([C@H]4CC[C@](O)(CC)[C@H](C)O4)O3)O2)[C@H](C)C[C@@H]1C (some centres undefined) | normalized growth | 0.937 (inactive)
COc1ccc(C[C@H](N)C(=O)N[C@@H]2[C@@H](CO)OC(n3cnc4c(N(C)C)ncnc43)[C@@H]2O)cc1 (some centres undefined) | normalized growth | 0.995 (inactive)

* * *

- method.description: chemical genetic growth profiling, strain panel (AID 1159580);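 also: tested at 20 µM; growth read once vehicle control cultures reached saturation at 30 °C; 1 = growth at the plate median or of vehicle wells; lower values mean less growth of the strain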
- measurement.setup: S. cerevisiae deletion strains, growth OD, locus YGL167C, strain pmr1, hits give low values
The whole screen tested about 5,500 compounds, of which about 2,000 (36%) were called active. Another 18% or so got no clear call; they are omitted. Some of the results follow.
In this section we review reported normalized growth values for a set of compounds.

compound | normalized growth
CC1=C(/C=C/C(C)=C/C=C/C(C)=C/C=C/C=C(C)/C=C/C=C(C)/C=C/C2=C(C)CCCC2(C)C)C(C)(C)CCC1 | 0.992 (inactive)
CC1(C)O[C@@H]2[C@@H](CO[C@@]3(COS(N)(=O)=O)OC(C)(C)O[C@@H]23)O1 | 1.01 (inactive)
c1cc2c(cc1[C@H]1OC[C@H]3[C@@H]1CO[C@H]3c1ccc3c(c1)OCO3)OCO2 | 0.862 (active)
COc1ccc(C[C@H](N)C(=O)N[C@@H]2[C@@H](CO)OC(n3cnc4c(N(C)C)ncnc43)[C@@H]2O)cc1 (stereo not given in full) | 1.01 (inactive)
Nc1c(Br)cc(Br)cc1CNC1CCC(O)CC1 (stereo not given) | 1 (inactive)
CC12CCC3C(CC=C4CC(O)CCC43C)C1CCC2=O (stereo not given) | 1 (inactive)
O=C(O)CCC(=O)c1ccc(-c2ccccc2)cc1 | 0.969 (inactive)
C[C@](N)(Cc1ccc(O)c(O)c1)C(=O)O | 0.954 (inactive)
CCCN(CCC)C(=O)C(CCC(=O)O)NC(=O)c1ccccc1 (stereo not given) | 0.986 (inactive)
NC(=O)c1ccc(N)nc1 | 0.999 (inactive)
NC(=O)c1cc[n+](CC2=C(C(=O)O)N3C(=O)C(NC(=O)C(c4ccccc4)S(=O)(=O)[O-])C3SC2)cc1 (stereo not given) | 0.984 (inactive)
CC(=O)O[C@H]1CC[C@@]2(C)C(=CCC3C2CC[C@@]2(C)C3CC[C@@H]2C(C)CCCC(C)C)C1 (stereo not given in full) | 0.989 (inactive)
COC(=O)[C@H]1[C@H]2C[C@@H]3c4[nH]c5cc(OC)ccc5c4CCN3C[C@H]2C[C@@H](OC(=O)c2cc(OC)c(OC)c(OC)c2)[C@@H]1OC | 0.991 (inactive)
N[C@@H](CCC(=O)N[C@@H](CCSC(CC(=O)O)C(=O)O)C(=O)NCC(=O)O)C(=O)O (stereo not given in full) | 0.997 (inactive)
CC1=C(/C=C/C(C)=C/C=C/C(C)=C\C(=O)O)C(C)(C)CCC1 | 0.975 (inactive)
CC(COc1ccccc1)N(CCCl)Cc1ccccc1 (stereo not given) | 1 (inactive)
CCCN(CCC)CCc1cccc2c1CC(=O)N2 | 0.963 (inactive)
CC(=O)O[C@H]1CC[C@@]2(C)C(=CCC3C2CC[C@]2(C)C(=O)CCC32)C1 (stereo not given in full) | 1.02 (inactive)
CC(Cc1ccc(O)c(O)c1)(NN)C(=O)O (stereo not given) | 1 (inactive)
C[C@H](COc1ccccc1)N[C@H](C)[C@H](O)c1ccc(O)cc1 | 1 (inactive)
